Where do the numbers come from? From ChEMBL document CHEMBL1129558.

- method: Physicochemical property pKa of piperdine amine was determined
measure_name: pKa
Reply: number alone, nothing else.

Inquiry: Which value of pKa has been reported for COc1ccccc1CN[C@H]1CCCN[C@H]1c1ccccc1 [CP-99994] in the records?
Reply text: 8.7

###

- experimental_system: Substance-P receptor (Homo sapiens, UniProt P25103)
- Sequence (P25103 whole entry): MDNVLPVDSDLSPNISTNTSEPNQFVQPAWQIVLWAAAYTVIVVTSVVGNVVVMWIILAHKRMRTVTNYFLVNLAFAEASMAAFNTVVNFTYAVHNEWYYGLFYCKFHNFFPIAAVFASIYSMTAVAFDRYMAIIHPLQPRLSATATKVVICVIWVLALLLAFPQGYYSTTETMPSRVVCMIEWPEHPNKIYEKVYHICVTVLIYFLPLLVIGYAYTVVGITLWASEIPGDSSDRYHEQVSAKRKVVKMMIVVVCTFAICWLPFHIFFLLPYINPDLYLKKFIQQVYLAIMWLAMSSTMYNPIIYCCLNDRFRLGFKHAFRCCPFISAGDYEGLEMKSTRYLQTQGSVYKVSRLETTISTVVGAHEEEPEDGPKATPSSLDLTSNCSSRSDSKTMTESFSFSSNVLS
- method: Displacement of [125I]-labeled SP from human Tachykinin receptor 1 expressed in CHO cells
measure_name: pIC50
Worth noting: pIC50 values are minus log10 of concentrations stated in mol/L.

Inquiry: Dear colleague, I am looking for the recorded pIC50 of the following compound: NC(=O)CN1CCO[C@H](OCc2cc(C(F)(F)F)cc(C(F)(F)F)c2)[C@@H]1c1ccccc1
Reply text: 8.96

Inquiry: Which pIC50 value belongs to FC(F)(F)c1cc(CO[C@H]2OCCN(Cn3cncn3)[C@H]2c2ccccc2)cc(C(F)(F)F)c1 ?
Reply text: 9.89

Inquiry: Entry FC(F)(F)c1cc(CO[C@H]2OCCN[C@@H]2c2ccccc2)cc(C(F)(F)F)c1 (stereo in doubt; 13) : reported pIC50 = ?
Reply text: 6.54

Inquiry: Recorded pIC50 for O=C(O)CN1CCO[C@H](OCc2cc(C(F)(F)F)cc(C(F)(F)F)c2)[C@@H]1c1ccccc1 , please?
Reply text: 7.18
